System: CCRF-CEM leukemia
assayText: NCI tumour cell line growth inhibition, 48 h
The entries below are paired with their reported TGI.
measuredMetric: TGI (µM)

molecule: COC1=C(Br)C(O)C2(C=C1Br)CC(C(=O)NCCCCNC(=O)C1=NOC3(C=C(Br)C(OC)=C(Br)C3O)C1)=NO2 (centres undefined)
qualifier: =
experimentalResult: 40.3
//
molecule: O=c1c2cccc(F)c2sc2c(N3CCNCC3)nc3ccccc3c12
qualifier: =
experimentalResult: 3.18
//
molecule: C[N+](C)(CCCCCC[N+](C)(C)CCCN1C(=O)c2cc3ccccc3cc2C1=O)CCCN1C(=O)c2cc3ccccc3cc2C1=O
qualifier: >
experimentalResult: 37.5
//
molecule: CC1=C(C(=O)Nc2ccc3[nH]ncc3c2)C(c2ccc(Cl)c(Cl)c2)CC(=O)N1 (centres undefined)
qualifier: >
experimentalResult: 25

* * *

Test system: UO-31 renal
assayText: NCI tumour cell line growth inhibition, 48 h
The entries below are paired with their reported TGI.

molecule: NC1=NN(c2ccccc2)C(=O)C1/C(=N\NC(=O)c1cc2ccccc2cc1O)C(=O)Nc1cccc(C(F)(F)F)c1 (stereo not drawn)
TGI: > 100 µM
//
molecule: O=C(N/C(=C\c1ccc(/C=C(\NC(=O)c2ccccc2)c2nc3cc(Cl)ccc3[nH]2)cc1)c1nc2cc(Cl)ccc2[nH]1)c1ccccc1
TGI: > 100 µM
//
molecule: COc1cc(OC)c2c(=O)c(OC)c(-c3ccc4c(c3)OCO4)oc2c1OC
TGI: > 100 µM
//
molecule: O=c1oc2ccccc2c(O)c1/C=N/C(=S)NCc1ccccc1
TGI: > 100 µM
//
molecule: C/C=C(/CCC1NCCC2c3ccccc3NC12)[Si](C)(C)C (stereo not drawn)
TGI: 20.2 µM
//
molecule: C=C1CC[C@@H]2[C@](C)(COC(C)=O)[C@H](OC(C)=O)CC[C@@]2(C)[C@@H]1CC(Nc1ccc(S(=O)(=O)Nc2cc(C)on2)cc1)C1=CCOC1=O (stereo partly drawn)
TGI: 3.52 µM
//
molecule: COc1ccc(N2C(=O)c3c(c4[nH]c5ccc(OC)cc5c4c4ccc(C(C)(C)C)cc34)C2=O)cc1
TGI: > 100 µM
//
molecule: O=C1C(=O)c2ccccc2C(O)=C1CCCc1ccc(C2CCCC2)cc1
TGI: 15.5 µM

* * *

Tested on: OVCAR-5 ovarian
assayText: NCI tumour cell line growth inhibition, 48 h
measuredMetric: TGI

compound: CC1=NN2C(c3ccc(C)cc3)=CSC2=NC(C)(C)C1
measuredMetric: TGI
experimentalResult: > 100 µM

compound: N#CC1(Nc2ccc(-c3ccc(NC4(C#N)CCCC4)cc3)cc2)CCCC1
measuredMetric: TGI
experimentalResult: > 100 µM

compound: O=C(O)C1CCC(=O)N1S(=O)(=O)c1ccccc1 (stereo unspecified)
measuredMetric: TGI
experimentalResult: > 100 µM

compound: CCOC(=O)CSc1nnc(CSc2nc(-c3ccccc3)c(-c3ccccc3)[nH]2)n1-c1ccccc1
measuredMetric: TGI
experimentalResult: > 100 µM

compound: COc1ccc(P2(=S)SP(=S)(c3ccc(Cl)cc3)S2)cc1 (stereo unspecified)
measuredMetric: TGI
experimentalResult: > 100 µM

compound: O=C1C=CC(=Nc2ccccc2)c2ccccc21
measuredMetric: TGI
experimentalResult: 33.4 µM

compound: COc1ccc(CNC(C)C(=O)O)cc1 (stereo unspecified)
measuredMetric: TGI
experimentalResult: > 100 µM

compound: Cc1[nH]n(C(=N)N)c(=O)c1CCO
measuredMetric: TGI
experimentalResult: > 100 µM

compound: O=c1c(C2=NCCC2)c(-c2ccc[nH]2)[nH]n1-c1ccccc1
measuredMetric: TGI
experimentalResult: > 100 µM

compound: Cc1cccc2nc3cccc(C(=O)NCCNCCNCCNC(=O)c4cccc5nc6cccc(C)c6nc45)c3nc12
measuredMetric: TGI
experimentalResult: 11.1 µM

compound: COC(=O)c1ccc(NCc2c(O)ccc(O)c2Br)cc1Cl
measuredMetric: TGI
experimentalResult: 28.6 µM
